Each record is given class 1 if its reported log10 vapour pressure (mmHg) is strictly below -3. Records at or above -3 are given class 0.

| molecule | group-label |
| --- | --- |
| CC(=O)OC1CCCCC1 | class 0 |
| C=COCC | class 0 |
| CC(C)=CCCC(C)CCO (stereo unspecified) | class 0 |
| COCCOC | class 0 |
| CCN1CCOCC1 | class 0 |
| Oc1ccccc1-c1ccccc1 | class 0 |
| Cc1cccc(N)c1C | class 0 |
| Cc1cc(C(C)(C)C)c(O)c(C(C)(C)C)c1 | class 0 |
| CN(C)c1ccc(N=Nc2ccccc2)cc1 | class 1 |
| CC(Br)C(C)Br (stereo unspecified) | class 0 |
| CC1=CCC(=C(C)C)CC1 | class 0 |
| O=[N+]([O-])c1ccc(Nc2ccccc2)c([N+](=O)[O-])c1 | class 1 |
| Cc1ccc(O)cc1 | class 0 |
| CCCCCCO | class 0 |
| CON(C)C(=O)Nc1ccc(Cl)cc1 | class 1 |
| C1CC2CCC1CC2 | class 0 |
| Clc1cc(Cl)c2oc3cc(Cl)c(Cl)cc3c2c1 | class 1 |
| CCCCCCCO | class 0 |
| O=C(c1ccccc1)C(O)c1ccccc1 (racemic) | class 1 |
| Nc1ccc(O)c2c1C(=O)c1ccccc1C2=O | class 1 |
| C=C(C)c1ccccc1 | class 0 |
| COC(=O)c1ccccc1C(=O)OC | class 0 |
| CNC(=O)Oc1cccc(N=CN(C)C)c1.Cl | class 1 |
| O=C(Nc1ccccc1)N(Cc1ccc(Cl)cc1)C1CCCC1 | class 1 |
| CN(C)CCCN | class 0 |
| CC=C(CC)CC | class 0 |
| COc1ccccc1C(=O)O | class 1 |
| CCCC(=O)OCC | class 0 |
| C=CCCCCCCC | class 0 |
| COC(=O)CS | class 0 |
| ICI | class 0 |
| CCCCCCCC(C)C | class 0 |
| CCCC(C)CC (stereo unspecified) | class 0 |
| C=CC(=O)O | class 0 |
| C=CC(=O)OCC(C)C | class 0 |

* * *

Each record gets a class by melting point: range 1 = under 30 °C, range 2 = from 30 °C up to 100 °C, range 3 = 100 °C and over

| compound | group-label |
| --- | --- |
| NC(=O)C(F)(F)F | range 2 |
| CCCCCS(=O)CCCCC | range 2 |
| Brc1c(Br)c(Br)c(-c2c(Br)c(Br)c(Br)c(Br)c2Br)c(Br)c1Br | range 3 |
| C=C[Si]1(C)O[Si](C)(C=C)O[Si](C)(C=C)O[Si](C)(C=C)O1 (centres undefined) | range 1 |
| C=Cc1ccc(C=C)cc1 | range 2 |
| O=C(CCC(=O)Oc1ccccc1)Oc1ccccc1 | range 3 |
| C=C1C2CCC3C(CCC4C35CCC[C@]4(C)CN3CCO[C@H]35)(C2)[C@H]1O (some centres undefined) | range 3 |
| CC(C)OC(=O)OOC(=O)OC(C)C | range 1 |
| Cc1cccc(Br)c1 | range 1 |
| CC(C)(C)c1nnc(NS(=O)(=O)c2ccccc2)s1 | range 3 |
| CC1=C(C)CCC1 | range 1 |
| CC(C)=CCCC=C(C)C | range 1 |
| O=[N+]([O-])c1cc(C2CCCCC2)c(O)c([N+](=O)[O-])c1 | range 3 |
| COc1ccc(-c2cc(=O)c3c(O)cc(O)cc3o2)cc1O | range 3 |
| CC(=O)[C@@]1(C)CC[C@H]2[C@@H]3C=C(C)C4=CC(=O)CC[C@]4(C)[C@H]3CC[C@@]21C | range 3 |
| CCCCCCCCCCCC(=O)Oc1ccccc1 | range 1 |
| COc1cc(C(=O)N2CCOCC2)cc(OC)c1OC | range 3 |
| Cc1ccccc1CC(C)C | range 1 |
| Oc1ccc2ccc(O)cc2c1 | range 3 |
| CCCCc1c(C)nc(NCC)nc1OS(=O)(=O)N(C)C | range 2 |
| C=Cc1ccc(CC)cc1 | range 1 |
| C1CCC2NC2C1 (centres undefined) | range 1 |
| Cn1c(=O)n(C)c(=O)n(C)c1=O | range 3 |
| CC(=O)Oc1ccccc1C(=O)Oc1ccccc1 | range 2 |
| OCCOc1cccc2ccccc12 | range 2 |
| O=C1C=C(Cl)C(=O)O1 | range 2 |
| Nc1cccc(N)c1 | range 2 |

* * *

Each record is given T if its reported melting point is strictly below 50 °C. Records at or above 50 °C are given F.

| compound | group-label |
| --- | --- |
| Cc1cccc(Cl)c1 | T |
| CCCCCCCCCC(=O)Cl | T |
| O=C1CNC(=O)N1 | F |
| COc1ccc(C=Cc2ccc(OC)cc2)cc1 | F |
| CCCCCCCCCCC(=O)OCC | T |
| c1ccc2ncncc2c1 | T |
| CCC(C)OC(C)=O (centres undefined) | T |
| Cc1ccncc1 | T |
| N#Cc1cc(Cl)ccc1N | F |

* * *

| molecule | melting point, °C |
| --- | --- |
| Nc1cc(F)c(F)c(F)c1F | 28 |
| O=C(CCCN1CC=C(n2c(=O)[nH]c3ccccc32)CC1)c1ccc(F)cc1 | 146 |
| CC(O)Cn1cnc2c1c(=O)n(C)c(=O)n2C (stereo not given) | 136 |
| BrCCC1CCCCC1 | -57 |
| CC#CC#CC | 67.8 |
| Nc1ncn([C@@H]2O[C@H](CO)[C@@H](O)[C@H]2O)c(=O)n1 | 229 |
| Clc1ccc2c(c1)Oc1cc(Cl)ccc1O2 | 151 |
| CON(C)C(=O)Nc1ccc(Oc2ccc3c(c2)OC(C)(OC)CC3(C)C)cc1 (stereo not given) | 102 |
| O=C(O)Cc1ccccc1O | 148 |
| CCc1cccc(C(C)=O)c1 | -20 |
| CCB(CC)CC | -93 |
| O=C(Cl)c1ccc(Cl)cc1 | 16 |
| Clc1c2ccccc2nc2ccccc12 | 121 |
| Cc1ccc(C)o1 | -62.8 |
| O=S1(=O)CC=CC1 | 64.5 |

* * *

Conditions: fish
Recorded log10 biotransformation half-life (days) for the following molecules

| molecule | log10 biotransformation half-life (days) |
| --- | --- |
| Clc1c(Cl)c(Cl)c2c(oc3c(Cl)c(Cl)c(Cl)c(Cl)c32)c1Cl | 1.22 |
| COc1cccc2ccccc12 | 0.39 |
| CC(=O)N(C)c1ccccc1 | -1.12 |
| Clc1ccc(-c2c(Cl)cc(Cl)c(Cl)c2Cl)cc1Cl | 2.57 |
| Clc1ccc(-c2cc(Cl)c(Cl)c(Cl)c2Cl)c(Cl)c1 | 2.34 |
| CC(CCl)OC(C)CCl (stereo not given) | -1.07 |
| Clc1ccc(Cl)c(Cl)c1 | 1.2 |
| Cc1c2ccccc2cc2c1ccc1ccccc12 | -0.05 |
| Cc1ccc([N+](=O)[O-])cc1 | -1.01 |
| CCCCCCC1CCCC(C)C1 (stereo not given) | 0.97 |
| CC(C)(C)c1cc(C(C)(C)C)cc(C(C)(C)C)c1 | 2.7 |
| Clc1ccc(Oc2ccc(Cl)cc2Cl)cc1 | 1.72 |
| C1CCC(CCC2CCCCC2)CC1 | 0.13 |
| Nc1cccc2cccc(N)c12 | -0.73 |
| COc1ccc(N)c([N+](=O)[O-])c1 | -0.87 |
| O=[N+]([O-])c1ccc(Cl)cc1 | -0.48 |
| Clc1ccc(Cl)c(-c2ccccc2Cl)c1 | 1.87 |
| CCOC(=O)C(SP(=S)(OC)OC)c1ccccc1 (stereo not given) | -0.75 |
| CC(C)C1CCC(C(C)C)CC1 (stereo not given) | 0.97 |
| CC(C)(C)c1cc(-c2ccccc2)cc(C(C)(C)C)c1O | 1.16 |
| Cc1ccc(Cl)cc1 | -0.83 |
| Clc1ccc(-c2ccc(Cl)c(Cl)c2)cc1Cl | 1.35 |
| CCC(C)=NO | -1.33 |
| COP(=S)(OC)Oc1ccc([N+](=O)[O-])cc1Cl | 0.01 |
| Clc1cc(Cl)c(Cl)c(Cl)c1Cl | 1.87 |
| Cc1ccc(N)cc1C | -0.99 |
| CN(C)c1ccccc1 | -0.96 |
| Clc1ccc(-c2cc(Cl)c(Cl)cc2Cl)cc1Cl | 2.19 |
| O=[N+]([O-])c1c(Cl)c(Cl)cc(Cl)c1Cl | 0.49 |
| C=C1C2CCC(C2)C1(C)C (stereo not given) | 0.96 |

* * *

Recorded melting point for the following molecules
quantity-name: melting point (°C)

| molecule | quantity-name | unit-text | observed-measurement |
| --- | --- | --- | --- |
| C=CCCCCCCCCCCCCCCCCCCCC | melting point | °C | 38 |
| CC(C(=O)O)c1ccc(C2CCC/C(=N\O)C2)cc1 (stereo not drawn) | melting point | °C | 178 |
| CC(C)OC(=O)C1(S(=O)(=O)c2ccc(Cl)cc2)CCCC1 | melting point | °C | 92.5 |
| CN(C)c1ccc(C(=N)c2ccc(N(C)C)cc2)cc1 | melting point | °C | 136 |
| O=C(NC(=O)c1ccccc1Cl)Nc1ccc(OC(F)(F)F)cc1 | melting point | °C | 195 |
| CCOC(=O)NCc1ccccc1 | melting point | °C | 49 |
| C=Cn1c2ccccc2c2ccccc21 | melting point | °C | 65 |
| CC(=O)CC(=O)O | melting point | °C | 36.5 |
| CC(C(=O)O)c1ccc2c(c1)[nH]c1ccc(Cl)cc12 (stereo not drawn) | melting point | °C | 198 |
| CC[C@](C)(N)C(=O)O (racemic) | melting point | °C | 316 |
| O=c1[nH]c(=O)n([C@H]2C[C@H](O)[C@@H](CO)O2)cc1I | melting point | °C | 263 |
| CCCCCCI | melting point | °C | -74.2 |
| Clc1ccc2c(c1)C(c1ccccc1)=NCc1nncn1-2 | melting point | °C | 228 |
